These data points were gathered from paper doi:10.1101/2020.12.12.421834.

biological target: T1, PD1 N-terminal loop-GST fusion protein (Homo sapiens); assay: ELISA
T1 chain: LDSPDRPWNP
VALUE TYPE: binding result

[
  {
    "BINDER": "M1-1 anti-PD1 antibody (human IgG4/kappa, C-terminal 6xHis) (antibody, V domains shown) VH: QVQLVESGGDVVQPGGSLRLSCAASGVAFRDYGMHWVRQAPGKGLEWVAVIWYDGSKKYYGDSVKGRFTVSRDNSKNMLYLEMNGLKAEDTAMYYCARNDDYWGQGTLVTVSS VL: EIVLTQSPATLSLSPGERATLSCRASQSVSNSLSWYQQNPGQSPRLIIYDTSKRATGIPARFSGSGSGTDFTLTINNLETEDFAVYYCHQRSDWPLTFGGGTKVEIK",
    "EXPERIMENTAL VALUE": "binds"
  }
]
